Kindly state shrunken log2 fold change for each of the entries shown.
Test system: Escherichia coli TOP10
Assay: shrunken log2 fold change of peptide-encoding DNA abundance (4.5 h post-induction vs induction); higher = less antimicrobial activity (less host growth inhibition)
Conditions: time post-induction: 4.5 h; library: site-saturation at positions 5, 18, 19, 20
Please give the numeric answer without any surrounding text.

[ask] Fill in the blank: the reported shrunken log2 fold change of `RRIRRRPPRLPRPRPRPLDQPRP` is ____.
[reply] -0.0226

[ask] Also check `RRIRQRPPRLPRPRPRPPAEPRP`
[reply] 0.589

[ask] Also check `RRIRFRPPRLPRPRPRPACIPRP`
[reply] -0.397

[ask] Also check `RRIRCRPPRLPRPRPRPDTLPRP`
[reply] -0.96

[ask] Also check `RRIRNRPPRLPRPRPRPRCQPRP`
[reply] 0.297

[ask] Also check `RRIRQRPPRLPRPRPRPVKLPRP`
[reply] -0.0467

[ask] Also check `RRIRNRPPRLPRPRPRPPMKPRP`
[reply] -0.216

[ask] Also check `RRIRYRPPRLPRPRPRPAKCPRP`
[reply] -0.153

[ask] Also check `RRIRGRPPRLPRPRPRPVGEPRP`
[reply] 1.23

[ask] Also check `RRIRMRPPRLPRPRPRPPGVPRP`
[reply] 0.919

[ask] Also check `RRIRYRPPRLPRPRPRPCFMPRP`
[reply] -0.675

[ask] Also check `RRIRTRPPRLPRPRPRPTEFPRP`
[reply] -0.0268

[ask] Also check `RRIRQRPPRLPRPRPRPTNWPRP`
[reply] 0.146

[ask] Also check `RRIRLRPPRLPRPRPRPSTEPRP`
[reply] 0.0451

[ask] Also check `RRIRMRPPRLPRPRPRPNIWPRP`
[reply] 0.785

[ask] Also check `RRIRQRPPRLPRPRPRPKVHPRP`
[reply] -0.0859

[ask] Also check `RRIRCRPPRLPRPRPRPYVMPRP`
[reply] -0.633

[ask] Also check `RRIRMRPPRLPRPRPRPVMYPRP`
[reply] -0.0366

[ask] Also check `RRIRWRPPRLPRPRPRPHRTPRP`
[reply] -0.168

[ask] Also check `RRIRLRPPRLPRPRPRPTGTPRP`
[reply] 0.104

[ask] Also check `RRIRPRPPRLPRPRPRPRIYPRP`
[reply] 0.0335

[ask] Also check `RRIRKRPPRLPRPRPRPTRVPRP`
[reply] 0.53

[ask] Also check `RRIRRRPPRLPRPRPRPDSCPRP`
[reply] -0.00351

[ask] Also check `RRIRVRPPRLPRPRPRPLDQPRP`
[reply] 0.0826

[ask] Also check `RRIRWRPPRLPRPRPRPAAAPRP`
[reply] 1.21

[ask] Also check `RRIRGRPPRLPRPRPRPNHYPRP`
[reply] -0.416

[ask] Also check `RRIRQRPPRLPRPRPRPCFPPRP`
[reply] 0.121

[ask] Also check `RRIRTRPPRLPRPRPRPELVPRP`
[reply] 0.0224

[ask] Also check `RRIRFRPPRLPRPRPRPMQKPRP`
[reply] 0.00713

[ask] Also check `RRIRERPPRLPRPRPRPYMYPRP`
[reply] -0.501

[ask] Also check `RRIRWRPPRLPRPRPRPGNMPRP`
[reply] -0.11

[ask] Also check `RRIRRRPPRLPRPRPRPYLMPRP`
[reply] -0.146

[ask] Also check `RRIRARPPRLPRPRPRPFDQPRP`
[reply] 0.249

[ask] Also check `RRIRCRPPRLPRPRPRPFQNPRP`
[reply] -0.0078

[ask] Also check `RRIRARPPRLPRPRPRPCMIPRP`
[reply] -0.261

[ask] Also check `RRIRLRPPRLPRPRPRPEFSPRP`
[reply] -0.013

[ask] Also check `RRIRLRPPRLPRPRPRPEDFPRP`
[reply] 0.0854

[ask] Also check `RRIRARPPRLPRPRPRPKMHPRP`
[reply] 0.364

[ask] Also check `RRIRERPPRLPRPRPRPRKTPRP`
[reply] 0.318

[ask] Also check `RRIRHRPPRLPRPRPRPCCSPRP`
[reply] -0.313

[ask] Also check `RRIRCRPPRLPRPRPRPHSIPRP`
[reply] -0.101

[ask] Also check `RRIRFRPPRLPRPRPRPCVEPRP`
[reply] -0.267

[ask] Also check `RRIRGRPPRLPRPRPRPLWTPRP`
[reply] 0.472

[ask] Also check `RRIRDRPPRLPRPRPRPICNPRP`
[reply] 0.324

[ask] Also check `RRIRQRPPRLPRPRPRPGNMPRP`
[reply] -0.0822

[ask] Also check `RRIRVRPPRLPRPRPRPSPLPRP`
[reply] -0.0757

[ask] Also check `RRIRFRPPRLPRPRPRPIYDPRP`
[reply] -0.626

[ask] Also check `RRIRARPPRLPRPRPRPMVVPRP`
[reply] -0.0787

[ask] Also check `RRIRPRPPRLPRPRPRPDTAPRP`
[reply] -0.0311

[ask] Also check `RRIRRRPPRLPRPRPRPFEIPRP`
[reply] -0.00184

[ask] Also check `RRIRCRPPRLPRPRPRPEHFPRP`
[reply] -0.0319

[ask] Also check `RRIRDRPPRLPRPRPRPLSTPRP`
[reply] 0.377

[ask] Also check `RRIRSRPPRLPRPRPRPERTPRP`
[reply] 0.0493

[ask] Also check `RRIRHRPPRLPRPRPRPMIDPRP`
[reply] -0.161

[ask] Also check `RRIRFRPPRLPRPRPRPTDVPRP`
[reply] 0.0385

[ask] Also check `RRIRYRPPRLPRPRPRPIKIPRP`
[reply] -0.105

[ask] Also check `RRIRLRPPRLPRPRPRPHRGPRP`
[reply] -0.00203

[ask] Also check `RRIRLRPPRLPRPRPRPCYNPRP`
[reply] -0.206

[ask] Also check `RRIRHRPPRLPRPRPRPAACPRP`
[reply] 0.066

[ask] Also check `RRIRTRPPRLPRPRPRPVKCPRP`
[reply] -0.0123

[ask] Also check `RRIRGRPPRLPRPRPRPMLSPRP`
[reply] 0.393

[ask] Also check `RRIRWRPPRLPRPRPRPLINPRP`
[reply] -0.229

[ask] Also check `RRIRERPPRLPRPRPRPIKRPRP`
[reply] -0.171

* * *

System: Escherichia coli TOP10;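 also: peptides expressed intracellularly from a pBAD plasmid library in pooled LB shake-flask culture, induced with 0.3% L-arabinose, DNA abundance read by NGS, three biological replicates, DESeq2 with apeglm shrinkage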
Assay: shrunken log2 fold change of peptide-encoding DNA abundance (4.5 h post-induction vs induction); higher = less antimicrobial activity (less host growth inhibition)
Conditions: time post-induction: 4.5 h; library: site-saturation at positions 5, 18, 19, 20
Metric: shrunken log2 fold change
Please give the numeric answer without any surrounding text.

[ask] Fill in the blank: the reported shrunken log2 fold change of `RRIRKRPPRLPRPRPRPGPIPRP` is ____.
[reply] 0.204

[ask] Also check `RRIRERPPRLPRPRPRPFTAPRP`
[reply] -0.227

[ask] Also check `RRIRARPPRLPRPRPRPYKCPRP`
[reply] -0.138

[ask] Also check `RRIRGRPPRLPRPRPRPAVYPRP`
[reply] 0.742

[ask] Also check `RRIRSRPPRLPRPRPRPAHNPRP`
[reply] 0.133

[ask] Also check `RRIRIRPPRLPRPRPRPGVPPRP`
[reply] -0.0807

[ask] Also check `RRIRGRPPRLPRPRPRPGCTPRP`
[reply] 0.885

[ask] Also check `RRIRGRPPRLPRPRPRPVNKPRP`
[reply] 0.0892

[ask] Also check `RRIRVRPPRLPRPRPRPCTHPRP`
[reply] 0.0145

[ask] Also check `RRIRVRPPRLPRPRPRPGDPPRP`
[reply] 0.172

[ask] Also check `RRIRKRPPRLPRPRPRPMGQPRP`
[reply] 0.0265

[ask] Also check `RRIRFRPPRLPRPRPRPYTHPRP`
[reply] -0.532

[ask] Also check `RRIRQRPPRLPRPRPRPCRRPRP`
[reply] 0.00897

[ask] Also check `RRIRDRPPRLPRPRPRPRCQPRP`
[reply] -0.128

[ask] Also check `RRIRCRPPRLPRPRPRPAYCPRP`
[reply] -0.363

[ask] Also check `RRIRYRPPRLPRPRPRPTCEPRP`
[reply] 0.00952

[ask] Also check `RRIRKRPPRLPRPRPRPPAQPRP`
[reply] 0.698

[ask] Also check `RRIRSRPPRLPRPRPRPPQCPRP`
[reply] 0.115

[ask] Also check `RRIRSRPPRLPRPRPRPFCMPRP`
[reply] -0.324

[ask] Also check `RRIRDRPPRLPRPRPRPFAMPRP`
[reply] -0.188

[ask] Also check `RRIRWRPPRLPRPRPRPHMTPRP`
[reply] 0.118

[ask] Also check `RRIRYRPPRLPRPRPRPKHSPRP`
[reply] -0.875

[ask] Also check `RRIRDRPPRLPRPRPRPDIFPRP`
[reply] 0.171

[ask] Also check `RRIRFRPPRLPRPRPRPNFPPRP`
[reply] -0.254

[ask] Also check `RRIRVRPPRLPRPRPRPVHWPRP`
[reply] 0.133

[ask] Also check `RRIRQRPPRLPRPRPRPGITPRP`
[reply] -0.103

[ask] Also check `RRIRMRPPRLPRPRPRPQPYPRP`
[reply] -0.00544

[ask] Also check `RRIRVRPPRLPRPRPRPMGIPRP`
[reply] 0.134

[ask] Also check `RRIRQRPPRLPRPRPRPKALPRP`
[reply] -0.0462

[ask] Also check `RRIRVRPPRLPRPRPRPAHSPRP`
[reply] 0.0902

[ask] Also check `RRIRFRPPRLPRPRPRPMPDPRP`
[reply] -0.0671

[ask] Also check `RRIRYRPPRLPRPRPRPKLFPRP`
[reply] -0.0593

[ask] Also check `RRIRNRPPRLPRPRPRPHHVPRP`
[reply] -0.0011

[ask] Also check `RRIRTRPPRLPRPRPRPINAPRP`
[reply] -0.175

[ask] Also check `RRIRTRPPRLPRPRPRPSFAPRP`
[reply] -0.126

[ask] Also check `RRIRGRPPRLPRPRPRPQQYPRP`
[reply] -0.107

[ask] Also check `RRIRCRPPRLPRPRPRPNVEPRP`
[reply] -0.216

[ask] Also check `RRIRCRPPRLPRPRPRPKFVPRP`
[reply] -0.155

[ask] Also check `RRIRTRPPRLPRPRPRPSKHPRP`
[reply] -0.351

[ask] Also check `RRIRFRPPRLPRPRPRPAASPRP`
[reply] 0.0986

[ask] Also check `RRIRVRPPRLPRPRPRPTDRPRP`
[reply] -0.00137

[ask] Also check `RRIRMRPPRLPRPRPRPLSIPRP`
[reply] -0.0206

[ask] Also check `RRIRPRPPRLPRPRPRPQKFPRP`
[reply] -0.178

[ask] Also check `RRIRFRPPRLPRPRPRPMSLPRP`
[reply] -0.142

[ask] Also check `RRIRFRPPRLPRPRPRPEYTPRP`
[reply] -0.0548

[ask] Also check `RRIRWRPPRLPRPRPRPHQQPRP`
[reply] -0.0485

[ask] Also check `RRIRARPPRLPRPRPRPEFIPRP`
[reply] -0.189

[ask] Also check `RRIRVRPPRLPRPRPRPTMIPRP`
[reply] 0.0351

[ask] Also check `RRIRIRPPRLPRPRPRPPLSPRP`
[reply] -0.128

[ask] Also check `RRIRFRPPRLPRPRPRPRNEPRP`
[reply] -0.0379

[ask] Also check `RRIRSRPPRLPRPRPRPSEFPRP`
[reply] -0.306

[ask] Also check `RRIRLRPPRLPRPRPRPIRDPRP`
[reply] -0.0112

[ask] Also check `RRIRVRPPRLPRPRPRPDLNPRP`
[reply] -0.233

[ask] Also check `RRIRARPPRLPRPRPRPIMWPRP`
[reply] 0.217

[ask] Also check `RRIRQRPPRLPRPRPRPERTPRP`
[reply] 0.124

[ask] Also check `RRIRYRPPRLPRPRPRPTQSPRP`
[reply] 0.0623

[ask] Also check `RRIRMRPPRLPRPRPRPGWVPRP`
[reply] 0.0878

[ask] Also check `RRIRPRPPRLPRPRPRPDMGPRP`
[reply] -0.407

[ask] Also check `RRIRSRPPRLPRPRPRPQHPPRP`
[reply] -0.239

[ask] Also check `RRIRIRPPRLPRPRPRPNPQPRP`
[reply] -0.287

[ask] Also check `RRIRWRPPRLPRPRPRPSRQPRP`
[reply] 0.399

[ask] Also check `RRIRFRPPRLPRPRPRPGAAPRP`
[reply] 0.517

[ask] Also check `RRIRCRPPRLPRPRPRPWRRPRP`
[reply] 0.0523
